The measured values listed here are drawn from patent US8664379B2.

# assay-target: wild-type human cardiac sodium channel, hNav1.5 (late sodium current) (Homo sapiens)
# assay-summary: Late INa screening assay (PatchXpress whole cell patch clamp)
# Format: cell-based
# cond: HEK293, 10 μM test compound; HEK293 cells expressing hNav1.5; late INa generated with 10 μM Tefluthrin (some experiments 50 nM ATX II); read-out: Late INa % blk (10 μM test cmpd)
Each entry gets Not met if its inhibition at 10 µM stays under 60%, and Met if its inhibition at 10 µM is 60% or above.

Before answering, review these 4 worked examples.
structure-as-smiles	class-assignment
CC(C)(C)OC(=O)CN1C(=O)CCc2cc(-c3ccc(Cl)cc3)ccc21	Met
O=C(O)CN1C(=O)CCc2cc(-c3cccc(F)c3)ccc21	Not met
O=C1CCc2cc(-c3ccc(F)cc3F)ccc2N1Cc1csc(-c2ccc(Cl)cc2)n1	Not met
CCOC(=O)CN1C(=O)CCc2cc(-c3cccc(OC(F)(F)F)c3)ccc21	Met

Exam item: Check this compound for inhibition at 10 µM at or above 60%: O=C1CCc2cc(-c3ccc(Cl)c(C(F)(F)F)c3)ccc2N1
Marked response: Met

Exam item: Could you do the same for CCOC(=O)CN1C(=O)CCc2cc(-c3ccc(OC(F)(F)F)cc3)ccc21 , please?
Marked response: Not met

Exam item: Could you do the same for N#Cc1cccc(-c2ccc3c(c2)CCC(=O)N3)c1 , please?
Marked response: Not met

Exam item: Could you do the same for COc1c(-c2ccc(Cl)cc2)cc2c(c1Br)NC(=O)CC2 , please?
Marked response: Not met

Exam item: Could you do the same for O=C1CCc2cc(-c3ccc(C(F)(F)F)cc3)ccc2N1 , please?
Marked response: Met

---

# assay-target: wild-type human cardiac sodium channel, hNav1.5 (late sodium current) (Homo sapiens)
# assay-summary: Late INa screening assay (PatchXpress whole cell patch clamp)
# Assay type: cell-based
# cond: HEK293, 10 μM test compound; HEK293 cells expressing hNav1.5; late INa generated with 10 μM Tefluthrin (some experiments 50 nM ATX II); read-out: Late INa % blk (10 μM test cmpd)
reported-property: inhibition at 10 µM (%)
Numeric only. Scale: %

molecule	inhibition at 10 µM / %
O=C1CCc2cc(-c3ccc(F)cc3)ccc2N1	29
O=C1CCc2cc(-c3ccc(F)cc3F)ccc2N1CCO	24
O=C1CCc2cc(-c3ccc(Oc4ccccc4)cc3)ccc2N1	53
O=C1CCc2cc(-c3ccc(C(F)(F)F)c(F)c3)ccc2N1	31
O=C(O)CN1C(=O)CCc2cc(-c3ccc(Oc4ccccc4)cc3)ccc21	17
CC(C)(C)OC(=O)CN1C(=O)CCc2cc(-c3ccc(C(F)(F)F)cc3)ccc21	69
O=C(O)CN1C(=O)CCc2cc(-c3ccc(Cl)c(Cl)c3)ccc21	16
CN1C(=O)CCc2cc(-c3cccc(F)c3)ccc21	65

Exam item: // lookup inhibition at 10 µM | system=wild-type human cardiac sodium channel, hNav1.5 (late sodium current) (Homo sapiens) | key= COc1c(-c2ccc(Cl)cc2)cc2c(c1-c1ccc(Cl)cc1)N(CC(=O)O)C(=O)CC2
Marked response: 30

Exam item: Could you do the same for NC(=O)c1ccc(-c2ccc3c(c2)CCC(=O)N3)cc1 , please?
Marked response: 16

Exam item: Could you do the same for COCCN1C(=O)CCc2cc(-c3ccc(F)cc3F)ccc21 , please?
Marked response: 52

Exam item: Could you do the same for CC1(C)CC(=O)Nc2ccc(-c3ccc(C(F)(F)F)cc3)cc21 , please?
Marked response: 19

Exam item: Could you do the same for COc1cc2c(cc1-c1ccc(C(F)(F)F)c(F)c1)CCC(=O)N2 , please?
Marked response: 54

---

# assay-target: wild-type human cardiac sodium channel, hNav1.5 (late sodium current) (Homo sapiens)
# assay-summary: Late INa screening assay (PatchXpress whole cell patch clamp)
# Assay type: cell-based
# cond: HEK293, 10 μM test compound; HEK293 cells expressing hNav1.5; late INa generated with 10 μM Tefluthrin (some experiments 50 nM ATX II); read-out: Late INa % blk (10 μM test cmpd)
Documented inhibition at 10 µM across a set of compounds
Numeric only. Scale: %

These recorded examples may help you get a feel for the data.
compound	unit-of-measurement	inhibition at 10 µM
N#CCN1C(=O)CCc2cc(-c3ccc(C(F)(F)F)cc3)ccc21 [Compound 90]	%	22
O=C1CCc2cc(-c3ccc(OC(F)(F)F)cc3)ccc2N1 [Compound 34]	%	60
NC(=O)CN1C(=O)CCc2cc(-c3ccc(F)cc3F)ccc21 [Compound 55]	%	14

Exam item: // lookup inhibition at 10 µM | system=wild-type human cardiac sodium channel, hNav1.5 (late sodium current) (Homo sapiens) | key= COc1ccccc1OCC(O)CN1C(=O)CCc2cc(-c3ccc(F)cc3F)ccc21 (stereo not drawn) [Compound 88]
Marked response: 40

Exam item: Could you do the same for CC(=O)c1cccc(-c2ccc3c(c2)CCC(=O)N3)c1 [Compound 8] , please?
Marked response: 22

Exam item: Could you do the same for NC(=O)c1cccc(-c2ccc3c(c2)CCC(=O)N3)c1 [Compound 6] , please?
Marked response: 23

Exam item: Could you do the same for CC(C)(C)OC(=O)CN1C(=O)CCc2cc(-c3ccc(Oc4ccccc4)cc3)ccc21 [Compound 66] , please?
Marked response: 27

Exam item: Could you do the same for O=C1CCc2cc(-c3ccc(F)c(F)c3)ccc2N1CCO [Compound 15] , please?
Marked response: 36

Exam item: Could you do the same for O=C(O)CN1C(=O)CCc2cc(-c3ccc(OC(F)(F)F)cc3)ccc21 [Compound 51] , please?
Marked response: 14

---

# assay-target: wild-type human cardiac sodium channel, hNav1.5 (late sodium current) (Homo sapiens, UniProt Q14524)
# Sequence (Q14524 whole entry): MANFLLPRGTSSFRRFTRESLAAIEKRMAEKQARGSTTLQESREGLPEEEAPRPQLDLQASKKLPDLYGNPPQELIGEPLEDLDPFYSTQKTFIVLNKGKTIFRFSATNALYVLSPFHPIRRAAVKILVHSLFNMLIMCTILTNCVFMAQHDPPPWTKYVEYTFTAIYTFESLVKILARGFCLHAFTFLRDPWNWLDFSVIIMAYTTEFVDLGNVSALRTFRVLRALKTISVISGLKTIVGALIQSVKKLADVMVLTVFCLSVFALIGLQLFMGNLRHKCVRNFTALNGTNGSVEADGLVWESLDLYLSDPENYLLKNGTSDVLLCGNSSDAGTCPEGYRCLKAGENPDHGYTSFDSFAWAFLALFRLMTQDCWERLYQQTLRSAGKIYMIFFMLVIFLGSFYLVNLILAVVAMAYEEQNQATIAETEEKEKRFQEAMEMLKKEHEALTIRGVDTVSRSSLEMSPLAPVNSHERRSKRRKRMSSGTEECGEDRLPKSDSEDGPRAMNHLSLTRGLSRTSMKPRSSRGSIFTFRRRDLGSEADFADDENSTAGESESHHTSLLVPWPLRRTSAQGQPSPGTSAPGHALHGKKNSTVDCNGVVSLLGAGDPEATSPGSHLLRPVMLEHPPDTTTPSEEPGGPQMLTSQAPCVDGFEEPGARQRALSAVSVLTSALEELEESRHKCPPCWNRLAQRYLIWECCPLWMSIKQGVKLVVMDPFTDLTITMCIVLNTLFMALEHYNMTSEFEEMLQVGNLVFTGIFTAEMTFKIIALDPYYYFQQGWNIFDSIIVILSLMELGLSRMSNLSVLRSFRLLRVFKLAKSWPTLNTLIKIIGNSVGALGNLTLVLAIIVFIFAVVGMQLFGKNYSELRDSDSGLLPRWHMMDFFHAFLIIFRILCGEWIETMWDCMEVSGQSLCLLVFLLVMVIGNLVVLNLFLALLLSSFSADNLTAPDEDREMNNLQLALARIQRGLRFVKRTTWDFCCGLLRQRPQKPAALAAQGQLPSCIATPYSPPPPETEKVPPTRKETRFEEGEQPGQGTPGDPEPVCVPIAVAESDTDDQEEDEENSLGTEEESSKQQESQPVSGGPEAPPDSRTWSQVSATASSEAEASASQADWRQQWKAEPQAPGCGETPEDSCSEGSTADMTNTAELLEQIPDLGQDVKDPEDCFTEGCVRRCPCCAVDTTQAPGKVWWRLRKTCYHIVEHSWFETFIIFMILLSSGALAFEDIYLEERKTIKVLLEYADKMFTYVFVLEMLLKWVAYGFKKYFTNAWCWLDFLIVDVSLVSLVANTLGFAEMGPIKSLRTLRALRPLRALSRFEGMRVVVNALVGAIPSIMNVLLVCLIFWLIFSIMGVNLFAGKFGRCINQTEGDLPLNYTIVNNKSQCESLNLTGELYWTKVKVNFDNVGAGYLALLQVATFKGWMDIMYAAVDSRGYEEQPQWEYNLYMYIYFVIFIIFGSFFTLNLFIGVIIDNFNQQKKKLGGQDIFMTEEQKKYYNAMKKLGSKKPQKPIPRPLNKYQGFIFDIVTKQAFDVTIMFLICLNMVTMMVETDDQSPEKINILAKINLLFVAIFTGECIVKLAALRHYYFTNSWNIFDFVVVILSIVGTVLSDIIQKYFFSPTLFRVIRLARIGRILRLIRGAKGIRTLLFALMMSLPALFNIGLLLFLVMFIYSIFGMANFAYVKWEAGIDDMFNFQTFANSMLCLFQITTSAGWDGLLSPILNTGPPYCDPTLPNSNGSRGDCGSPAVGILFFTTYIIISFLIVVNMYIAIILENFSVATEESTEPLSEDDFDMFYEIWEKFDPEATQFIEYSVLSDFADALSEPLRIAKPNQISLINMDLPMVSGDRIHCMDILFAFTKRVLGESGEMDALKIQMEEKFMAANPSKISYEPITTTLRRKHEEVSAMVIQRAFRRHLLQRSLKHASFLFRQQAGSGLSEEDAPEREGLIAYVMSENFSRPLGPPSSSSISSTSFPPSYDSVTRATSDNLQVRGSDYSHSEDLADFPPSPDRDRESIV
# assay-summary: Late INa screening assay (PatchXpress whole cell patch clamp)
# Type: cell-based
# cond: HEK293, 10 μM test compound; HEK293 cells expressing hNav1.5; late INa generated with 10 μM Tefluthrin (some experiments 50 nM ATX II); read-out: Late INa % blk (10 μM test cmpd)
Documented inhibition at 10 µM across a set of molecules
Output should be the measured figure followed by the unit it is expressed in.

structure-as-smiles	reported-property	result
O=C1CCc2cc(-c3ccc(OC(F)(F)F)cc3)ccc2N1Cc1cccnc1	inhibition at 10 µM	19%
CCOC(=O)CN1C(=O)CCc2cc(-c3ccc(F)cc3F)ccc21	inhibition at 10 µM	67%
CCOC(=O)c1cccc(CN2C(=O)CCc3cc(-c4ccc(C(F)(F)F)cc4)ccc32)c1	inhibition at 10 µM	31%
O=C1CCc2cc(-c3ccc(F)cc3F)ccc2N1CC(F)(F)F	inhibition at 10 µM	18%
O=C(O)CN1C(=O)CCc2cc(-c3ccc(Cl)c(F)c3)ccc21	inhibition at 10 µM	13%
O=C(CN1C(=O)CCc2cc(-c3ccc(C(F)(F)F)cc3)ccc21)N1CCOCC1	inhibition at 10 µM	27%
COCCN1C(=O)CCc2cc(-c3ccc(C(F)(F)F)cc3)ccc21	inhibition at 10 µM	60%
COc1cc2c(cc1-c1ccc(C(F)(F)F)cc1)CCC(=O)N2CC(=O)O	inhibition at 10 µM	12%

Exam item: // inhibition at 10 µM lookup, key: CCOC(=O)CN1C(=O)CCc2cc(-c3ccc(C(F)(F)F)cc3)ccc21
Marked response: 13%

---

Documented hERG Patch Clamp hERG % blk 10 μm across a set of compounds
# assay-target: hERG potassium channel (Homo sapiens, UniProt Q12809)
# Construct: expressed in transfected cells
# Sequence (Q12809 whole entry): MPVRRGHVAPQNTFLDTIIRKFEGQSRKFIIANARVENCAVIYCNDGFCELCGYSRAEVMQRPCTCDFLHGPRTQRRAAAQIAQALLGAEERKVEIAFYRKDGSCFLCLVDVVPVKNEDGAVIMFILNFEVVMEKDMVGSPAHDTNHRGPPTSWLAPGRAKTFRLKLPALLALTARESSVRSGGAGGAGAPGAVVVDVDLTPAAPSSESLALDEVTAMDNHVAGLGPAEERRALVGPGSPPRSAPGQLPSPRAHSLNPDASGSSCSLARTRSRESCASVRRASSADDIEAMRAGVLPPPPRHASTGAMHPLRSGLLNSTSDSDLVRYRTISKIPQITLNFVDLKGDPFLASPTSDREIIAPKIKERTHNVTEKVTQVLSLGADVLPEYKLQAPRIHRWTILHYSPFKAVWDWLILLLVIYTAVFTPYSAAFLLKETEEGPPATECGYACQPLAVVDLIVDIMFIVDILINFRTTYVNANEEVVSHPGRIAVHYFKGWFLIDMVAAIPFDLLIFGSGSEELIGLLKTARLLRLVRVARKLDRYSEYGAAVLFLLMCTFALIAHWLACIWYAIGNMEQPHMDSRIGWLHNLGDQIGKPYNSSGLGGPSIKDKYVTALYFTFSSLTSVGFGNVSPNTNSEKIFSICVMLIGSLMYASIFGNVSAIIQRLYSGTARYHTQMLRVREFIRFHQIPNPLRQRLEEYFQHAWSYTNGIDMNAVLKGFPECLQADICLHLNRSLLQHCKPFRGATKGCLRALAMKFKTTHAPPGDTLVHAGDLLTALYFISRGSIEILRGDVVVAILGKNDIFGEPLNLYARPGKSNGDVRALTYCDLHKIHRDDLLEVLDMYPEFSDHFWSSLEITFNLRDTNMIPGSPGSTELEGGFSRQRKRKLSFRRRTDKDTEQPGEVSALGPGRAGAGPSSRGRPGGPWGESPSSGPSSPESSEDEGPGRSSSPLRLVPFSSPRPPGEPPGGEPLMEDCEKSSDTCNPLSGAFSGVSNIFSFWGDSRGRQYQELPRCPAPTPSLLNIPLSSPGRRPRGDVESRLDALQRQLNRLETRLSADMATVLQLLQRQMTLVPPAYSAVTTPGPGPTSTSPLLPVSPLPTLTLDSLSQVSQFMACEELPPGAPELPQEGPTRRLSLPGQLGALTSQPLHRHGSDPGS
# assay-summary: hERG screening assay (PatchXpress patch clamp)
# Assay type: cell-based
# cond: 10 μM test compound; hERG expressed in CHO cells; peak current at -50 mV
Numeric only. Scale: %

These recorded examples may help you get a feel for the data.
structure-as-smiles	quantitative-result
O=C1CCc2cc(-c3ccc(F)cc3F)ccc2N1Cc1csc(-c2ccc(Cl)cc2)n1	10
CC(C)(C)OC(=O)CN1C(=O)CCc2cc(-c3ccc(C(F)(F)F)cc3)ccc21	97
CCOC(=O)CN1C(=O)CCc2cc(-c3ccc(OC(F)(F)F)cc3)ccc21	32

Pending compound:
Exam item: // lookup hERG Patch Clamp hERG % blk 10 μm | system=hERG potassium channel (Homo sapiens, UniProt Q12809) | key= O=C(O)CN1C(=O)CCc2cc(-c3ccc(Oc4ccccc4)cc3)ccc21
Marked response: 10

---

# assay-target: hERG potassium channel (Homo sapiens, UniProt Q12809)
# Construct: expressed in transfected cells
# assay-summary: hERG screening assay (PatchXpress patch clamp)
# Assay type: cell-based
# cond: 1 μM test compound; hERG expressed in CHO cells; peak current at -50 mV
# Description: Compounds were screened to test their activity in blocking the hERG potassium channel. The hERG channel was heterologously expressed in a CHO (Chinese Hamster Ovary) cell line. […] hERG channels are activated when the voltage is stepped to +20 mV from the −80 mV holding potential. […] The peak current at −50 mV was measured both under control conditions and after addition of compound. […]
reported-property: hERG Patch Clamp hERG % blk 1 μm

compound	hERG Patch Clamp hERG % blk 1 μm
COCCN1C(=O)CCc2cc(-c3ccc(F)cc3F)ccc21 [Compound 27]	12%
Cc1cc(CN2C(=O)CCc3cc(-c4ccc(OC(F)(F)F)cc4)ccc32)no1 [Compound 39]	12%

Exam item: // hERG Patch Clamp hERG % blk 1 μm lookup, key: O=C(O)CN1C(=O)CCc2cc(-c3ccc(Cl)c(F)c3)ccc21 [Compound 58]
Marked response: 10%

Exam item: Could you do the same for O=C1CCc2cc(-c3cccc(F)c3)ccc2N1 [Compound 1] , please?
Marked response: 10%

Exam item: Could you do the same for O=C1CCc2cc(-c3ccc(C(F)(F)F)cc3)ccc2N1CCO [Compound 14] , please?
Marked response: 10%

Exam item: Could you do the same for CC(C)(C)OC(=O)CN1C(=O)CCc2cc(-c3ccc(C(F)(F)F)cc3)ccc21 [Compound 29] , please?
Marked response: 11%

Exam item: Could you do the same for CCOC(=O)CN1C(=O)CCc2cc(-c3ccc(OC(F)(F)F)cc3)ccc21 [Compound 25] , please?
Marked response: 26%

Exam item: Could you do the same for O=C(O)CN1C(=O)CCc2cc(-c3ccc(C(F)(F)F)cc3)ccc21 [Compound 44] , please?
Marked response: 10%

Exam item: Could you do the same for COCCN1C(=O)CCc2cc(-c3ccc(C(F)(F)F)cc3)ccc21 [Compound 49] , please?
Marked response: 10%

Exam item: Could you do the same for O=C1CCc2cc(-c3ccccc3)ccc2N1 [Compound 4, 6-phenyl-3,4-dihydroquinolin-2(1H)-one] , please?
Marked response: 10%

Exam item: Could you do the same for O=C1CCc2cc(-c3ccc(OC(F)(F)F)cc3)ccc2N1 [Compound 34] , please?
Marked response: 13%

Exam item: Could you do the same for O=C(O)CN1C(=O)CCc2cc(-c3ccc(Oc4ccccc4)cc3)ccc21 [Compound 70] , please?
Marked response: 10%

Exam item: Could you do the same for CN1C(=O)CCc2cc(-c3cccc(F)c3)ccc21 [Compound 21] , please?
Marked response: 11%

Exam item: Could you do the same for O=C(O)CN1C(=O)CCc2cc(-c3ccc(Cl)c(Cl)c3)ccc21 [Compound 69] , please?
Marked response: 10%

Exam item: Could you do the same for O=C(O)CN1C(=O)CCc2cc(-c3cccc(C(F)(F)F)c3)ccc21 [Compound 60] , please?
Marked response: 10%

Exam item: Could you do the same for O=C1CCc2cc(-c3ccc(F)cc3F)ccc2N1Cc1csc(-c2ccc(Cl)cc2)n1 [Compound 26] , please?
Marked response: 10%

Exam item: Could you do the same for O=C1CCc2cc(-c3ccc(F)c(F)c3)ccc2N1CCO [Compound 15] , please?
Marked response: 13%
